B1: library; a variant is named by its letters at N, in order (parent)
chain: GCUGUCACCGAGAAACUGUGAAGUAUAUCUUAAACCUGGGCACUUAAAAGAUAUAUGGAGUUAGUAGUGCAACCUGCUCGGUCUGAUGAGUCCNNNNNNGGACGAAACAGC

Variants of: B1
ASSAY REMARKS: normalized RNA/DNA level without ligand (relative to sTRSVctl = 100) (log10 (% of sTRSVctl)); HEK293T; ligand: cyclic di-GMP (c-di-GMP-II aptamer); higher = less ribozyme self-cleavage, higher mRNA level
STATED CONDITIONS: reporter: mCherry (pCS4076), ligand present: no
QUANTITY MEASURED: normalized RNA/DNA level without ligand (log10)
Respond with the number and no other words.

{"columns": ["ALTERATION", "OBSERVED MEASUREMENT"],
 "data": [
  ["CCGAGC", 1.78]
]}

From here, focus on the item given below.
Recorded normalized RNA/DNA level without ligand (log10) of GUUCGU , please.
1.66

Reference source: the supplement of paper PMC6757056
